Molecular target: human somatostatin receptor subtype 4 (human)
Experiment: radioligand displacement, CHO-K1 membranes expressing human SSTR4; competitor [125I-Tyr11]SS-14

substance	IC50 (µM)
Compound 2: cyclo[Tic-Tyr-D-Trp-Lys-Abu-Phe] (peptide)	1
